Origin of the recorded values: ChEMBL document CHEMBL3627607

- test-method-notes: Plasma clearance in rat at 5 mg/kg, iv
- Assay type: ADME, organism-based
measured-quantity: clearance
The reply must contain the numeric value and, after it, the unit.

1) CS(=O)(=O)c1ccc(-c2cnn3ccc(-c4cccc(S(C)(=O)=O)c4)cc23)cc1 13.9 mL/min/kg

So what's the measured clearance for this one? CS(=O)(=O)c1ccc(-c2cnc3ccc(-c4cccc(S(=O)(=O)C5CC5)c4)cn23)cc1
8.7 mL/min/kg

So what's the measured clearance for this one? CS(=O)(=O)c1ccc(-c2cnn3ccc(-c4cccc(S(=O)(=O)C5CC5)c4)nc23)cc1
1.1 mL/min/kg

---

- test-method-notes: Selectivity index, ratio of IC50 for African green monkey VERO cells to IC50 for Plasmodium falciparum NF54
- Assay type: toxicity, cell-based
- test-context: read-out: Ratio IC50
# selectivity ratio values compiled below

Here is how some compounds turned out for selectivity ratio.
compound	selectivity ratio
CS(=O)(=O)c1ccc(-c2cnc3ccc(-c4cccc(S(=O)(=O)C5CC5)c4)cn23)cc1	700
CS(=O)(=O)c1ccc(-c2cnn3c2NC(c2cccc(S(=O)(=O)C4CC4)c2)CC3)cc1 (stereo not given)	> 1000
CS(=O)(=O)c1ccc(-c2cnn3ccc(-c4cccc(S(C)(=O)=O)c4)cc23)cc1	> 1000

So what's the measured selectivity ratio for this one? CS(=O)(=O)c1ccc(-c2cnc3ccc(-c4cccc(S(C)(=O)=O)c4)nn23)cc1
> 1000

So what's the measured selectivity ratio for this one? C[S+]([O-])c1ccc(-c2cnn3ccc(-c4cccc(S(=O)(=O)C5CC5)c4)cc23)cc1 (stereo not given)
> 1000

---

# Activity values compiled below
- Tested on: Plasmodium berghei
- test-method-notes: Antiplasmodial activity against Plasmodium berghei ANKA expressing GFP infected in mouse assessed as reduction of parasitemia level at 50 mg/kg, po qd for 4 days measured on day 4 post last dose by flow cytometric analysis relative to control
- Type: functional
- Set-up: scale not given: the % may be the effect or the level left

Here is how some molecules turned out for Activity.
molecule	test-system	Activity
CS(=O)(=O)c1ccc(-c2cnc3ccc(-c4cccc(C(F)(F)F)c4)nn23)cc1	Plasmodium berghei	99.8%
CS(=O)(=O)c1ccc(-c2cnc3ccc(-c4cccc(S(=O)(=O)C5CC5)c4)cn23)cc1	Plasmodium berghei	99.5%
CS(=O)(=O)c1ccc(-c2cnn3ccc(-c4cccc(S(=O)(=O)C5CC5)c4)cc23)cc1	Plasmodium berghei	71%
CS(=O)(=O)c1ccc(-c2cnc3ccc(-c4cccc(S(C)(=O)=O)c4)nn23)cc1	Plasmodium berghei	99.8%
C[S+]([O-])c1ccc(-c2cnc3ccc(-c4cccc(S(=O)(=O)C5CC5)c4)nn23)cc1 (centres undefined)	Plasmodium berghei	99.8%

So what's the measured Activity for this one? CS(=O)(=O)c1ccc(-c2cnn3ccc(-c4cccc(S(C)(=O)=O)c4)cc23)cc1
60%

So what's the measured Activity for this one? C[S+]([O-])c1ccc(-c2cnn3ccc(-c4cccc(S(=O)(=O)C5CC5)c4)cc23)cc1 (centres undefined)
99.8%

So what's the measured Activity for this one? CS(=O)(=O)c1ccc(-c2cnn3ccc(-c4cccc(S(=O)(=O)C5CC5)c4)nc23)cc1
86%

So what's the measured Activity for this one? CS(=O)(=O)c1ccc(-c2cnn3c2NC(c2cccc(S(=O)(=O)C4CC4)c2)CC3)cc1 (centres undefined)
78%

---

- test-method-notes: Metabolic stability of the compound in mouse liver microsomes assessed as compound remaining at 0.1 uM after 30 mins by LC-MS/MS analysis
- Format: ADME
- test-context: 0.5 h
measured-quantity: Stability

Here is how some compounds turned out for Stability.
compound	Stability
CS(=O)(=O)c1ccc(-c2cnn3ccc(-c4cccc(S(C)(=O)=O)c4)cc23)cc1	Stable
CS(=O)(=O)c1ccc(-c2cnc3cnc(-c4cccc(S(C)(=O)=O)c4)cn23)cc1	Stable
C[S+]([O-])c1ccc(-c2cnn3ccc(-c4cccc(S(=O)(=O)C5CC5)c4)cc23)cc1 (centres undefined)	Stable
CS(=O)(=O)c1ccc(-c2cnc3ccc(-c4cccc(S(C)(=O)=O)c4)nn23)cc1	Stable

Next:
So what's the measured Stability for this one? CS(=O)(=O)c1ccc(-c2cnn3c2NC(c2cccc(S(=O)(=O)C4CC4)c2)CC3)cc1 (centres undefined)
Stable

---

- test-method-notes: Selectivity index, ratio of IC50 for African green monkey VERO cells to IC50 for multidrug resistant Plasmodium falciparum K1
- Assay type: toxicity, cell-based
- test-context: read-out: Ratio IC50
measured-quantity: selectivity ratio

compound	selectivity ratio
CS(=O)(=O)c1ccc(-c2cnc3ccc(-c4cccc(S(C)(=O)=O)c4)nn23)cc1	> 1000
CS(=O)(=O)c1ccc(-c2cnc3ccc(-c4cccc(S(=O)(=O)C5CC5)c4)cn23)cc1	700
CS(=O)(=O)c1ccc(-c2cnn3c2NC(c2cccc(S(=O)(=O)C4CC4)c2)CC3)cc1 (stereo not given)	> 1000
C[S+]([O-])c1ccc(-c2cnn3ccc(-c4cccc(S(=O)(=O)C5CC5)c4)cc23)cc1 (stereo not given)	> 1000

Next:
So what's the measured selectivity ratio for this one? CS(=O)(=O)c1ccc(-c2cnn3ccc(-c4cccc(S(C)(=O)=O)c4)cc23)cc1
> 1000

---

# MSD values compiled below
- System: Plasmodium berghei
- test-method-notes: Antiplasmodial activity against Plasmodium berghei ANKA expressing GFP infected in mouse assessed as means survival days at 50 mg/kg, po qd for 4 days
- Format: functional

Here is how some compounds turned out for MSD.
compound	MSD
CS(=O)(=O)c1ccc(-c2cnn3c2NC(c2cccc(S(=O)(=O)C4CC4)c2)CC3)cc1 (centres undefined)	7 days
CS(=O)(=O)c1ccc(-c2cnn3ccc(-c4cccc(S(=O)(=O)C5CC5)c4)cc23)cc1	7 days

Hello, I am looking for reported MSD with Plasmodium berghei for CS(=O)(=O)c1ccc(-c2cnc3ccc(-c4cccc(S(=O)(=O)C5CC5)c4)cn23)cc1 . Could you help?
10 days

Hello, I am looking for reported MSD with Plasmodium berghei for CS(=O)(=O)c1ccc(-c2cnn3ccc(-c4cccc(S(=O)(=O)C5CC5)c4)nc23)cc1 . Could you help?
7 days

Hello, I am looking for reported MSD with Plasmodium berghei for CS(=O)(=O)c1ccc(-c2cnc3ccc(-c4cccc(S(C)(=O)=O)c4)nn23)cc1 . Could you help?
7 days

Hello, I am looking for reported MSD with Plasmodium berghei for CS(=O)(=O)c1ccc(-c2cnn3ccc(-c4cccc(S(C)(=O)=O)c4)cc23)cc1 . Could you help?
4 days

Hello, I am looking for reported MSD with Plasmodium berghei for CS(=O)(=O)c1ccc(-c2cnc3ccc(-c4cccc(C(F)(F)F)c4)nn23)cc1 . Could you help?
>30 days

Hello, I am looking for reported MSD with Plasmodium berghei for C[S+]([O-])c1ccc(-c2cnn3ccc(-c4cccc(S(=O)(=O)C5CC5)c4)cc23)cc1 (centres undefined) . Could you help?
>30 days

Hello, I am looking for reported MSD with Plasmodium berghei for C[S+]([O-])c1ccc(-c2cnc3ccc(-c4cccc(S(=O)(=O)C5CC5)c4)nn23)cc1 (centres undefined) . Could you help?
>30 days

---

- test-method-notes: Tmax in Plasmodium falciparum 3D7 infected in non-myelodepleted NOD-SCID IL2Rgammanull mouse engrafted with human erythrocytes at 0.5 mg/kg, po
- Type: ADME, organism-based
- test-context: in vivo
measured-quantity: Tmax
The reply must contain the numeric value and, after it, the unit.

molecule	Tmax
CS(=O)(=O)c1ccc(-c2cnn3ccc(-c4cccc(S(=O)(=O)C5CC5)c4)cc23)cc1	2 h

So what's the measured Tmax for this one? C[S+]([O-])c1ccc(-c2cnn3ccc(-c4cccc(S(=O)(=O)C5CC5)c4)cc23)cc1 (configuration not stated)
0.25 h

---

- test-method-notes: Half life in rat at 10 mg/kg, po
- Assay type: ADME, organism-based
- test-context: in vivo
measured-quantity: half-life (h)
A number alone suffices; assume h.

So what's the measured half-life for this one? CS(=O)(=O)c1ccc(-c2cnn3ccc(-c4cccc(S(=O)(=O)C5CC5)c4)cc23)cc1
5.7

---

- test-method-notes: AUC (0 to 23 hrs) in Plasmodium falciparum 3D7 infected in non-myelodepleted NOD-SCID IL2Rgammanull mouse engrafted with human erythrocytes at 10 mg/kg, po
- Format: ADME, organism-based
- Design: dose 10 mg/kg, time < 23 hr, route oral
- test-context: in vivo
measured-quantity: AUC(0-t) at 23 h (ng·h/mL)
A number alone suffices; assume ng·h/mL.

So what's the measured AUC(0-t) at 23 h for this one? CS(=O)(=O)c1ccc(-c2cnn3ccc(-c4cccc(S(=O)(=O)C5CC5)c4)cc23)cc1
24800

---

- test-method-notes: Selectivity index, ratio of IC50 for CHO cells to IC50 for multidrug resistant Plasmodium falciparum K1
- Assay type: toxicity, cell-based
- test-context: hamster, read-out: Ratio IC50
# selectivity ratio values compiled below

compound	selectivity ratio
CS(=O)(=O)c1ccc(-c2cnc3ccc(-c4cccc(S(=O)(=O)C5CC5)c4)cn23)cc1	700
CS(=O)(=O)c1ccc(-c2cnn3ccc(-c4cccc(S(C)(=O)=O)c4)cc23)cc1	> 1000
C[S+]([O-])c1ccc(-c2cnn3ccc(-c4cccc(S(=O)(=O)C5CC5)c4)cc23)cc1 (stereo not given)	> 1000
CS(=O)(=O)c1ccc(-c2cnc3ccc(-c4cccc(S(C)(=O)=O)c4)nn23)cc1	> 1000

So what's the measured selectivity ratio for this one? CS(=O)(=O)c1ccc(-c2cnn3c2NC(c2cccc(S(=O)(=O)C4CC4)c2)CC3)cc1 (stereo not given)
> 1000
